Test system: human cervical tumor cell line HeLa (ATCC CCL-2)
Assay: SAC-Formation - Nocodazole-Induced Assay
Type: cell-based
Conditions: Homo sapiens, HeLa, 24 h, HeLa cells, nocodazole 0.1 μg/ml together with test compound, decrease of mitotic cells (phospho-histone H3 Ser10)
measured-parameter: IC50 (nM)
Numeric only. Scale: nM

# count of solved cases: 10
Cc1nsc(Nc2cnc(C(F)(F)F)cn2)c1C(=O)Nc1ccc(OCCN(C)CC(F)(F)F)nc1; 99
Cc1nsc(Nc2cnc3ccccc3n2)c1C(=O)Nc1cccc(NC(=O)OC(C)(C)C)c1; 210
Cc1nsc(Nc2cnc3ccccc3n2)c1C(=O)Nc1cccc(C(=O)NCC(F)(F)F)c1; 320
COCCOc1ccc(NC(=O)c2c(C)nsc2Nc2nc3c(C(F)(F)F)cccc3s2)cn1; 230
Cc1nsc(Nc2cnc3ccccc3n2)c1C(=O)Nc1cccc(C(=O)NCCCN2CCCC2=O)c1; 310
Cc1nsc(Nc2cnc(C(F)(F)F)cn2)c1C(=O)Nc1ccc(OCCN(C)CC(F)F)nc1; 81
Cc1nsc(Nc2cncc(C(F)(F)F)n2)c1C(=O)Nc1ccc(C(=O)N2CCN(CC(F)(F)F)CC2)cc1; 230
Cc1nsc(Nc2ccc(C#N)cn2)c1C(=O)Nc1cccc(C(=O)NC2CC2)c1; 790
Cc1nsc(Nc2cnc3ccccc3n2)c1C(=O)Nc1cccc(C(=O)Nc2ccc3c(c2)OCO3)c1; 190
Cc1nsc(Nc2cnc(C(F)(F)F)cn2)c1C(=O)Nc1ccc(F)c(OCC2CCCN(CCF)C2)c1 (centres unmarked); 49

Could you share which IC50 value was measured for "Cc1nsc(Nc2cncc(C(F)(F)F)n2)c1C(=O)Nc1ccc(C(=O)NC2CCN(C(=O)OC(C)(C)C)CC2)cc1" ? 770

Could you share which IC50 value was measured for "CC(=O)N1CCC(Oc2ccc(NC(=O)c3c(C)nsc3Nc3cnc(C(F)(F)F)cn3)cn2)CC1" ? 1000

Could you share which IC50 value was measured for "Cc1nsc(Nc2cnc3ccccc3n2)c1C(=O)Nc1ccc(Oc2cccc(C(F)(F)F)c2)nc1" ? 190

Could you share which IC50 value was measured for "Cc1nsc(Nc2cnc3ccccc3n2)c1C(=O)Nc1cccc(C(=O)NCCN2CCOCC2)c1" ? 1400
